Molecular target: UniProt:P11362
Sequence (P11362 22-822): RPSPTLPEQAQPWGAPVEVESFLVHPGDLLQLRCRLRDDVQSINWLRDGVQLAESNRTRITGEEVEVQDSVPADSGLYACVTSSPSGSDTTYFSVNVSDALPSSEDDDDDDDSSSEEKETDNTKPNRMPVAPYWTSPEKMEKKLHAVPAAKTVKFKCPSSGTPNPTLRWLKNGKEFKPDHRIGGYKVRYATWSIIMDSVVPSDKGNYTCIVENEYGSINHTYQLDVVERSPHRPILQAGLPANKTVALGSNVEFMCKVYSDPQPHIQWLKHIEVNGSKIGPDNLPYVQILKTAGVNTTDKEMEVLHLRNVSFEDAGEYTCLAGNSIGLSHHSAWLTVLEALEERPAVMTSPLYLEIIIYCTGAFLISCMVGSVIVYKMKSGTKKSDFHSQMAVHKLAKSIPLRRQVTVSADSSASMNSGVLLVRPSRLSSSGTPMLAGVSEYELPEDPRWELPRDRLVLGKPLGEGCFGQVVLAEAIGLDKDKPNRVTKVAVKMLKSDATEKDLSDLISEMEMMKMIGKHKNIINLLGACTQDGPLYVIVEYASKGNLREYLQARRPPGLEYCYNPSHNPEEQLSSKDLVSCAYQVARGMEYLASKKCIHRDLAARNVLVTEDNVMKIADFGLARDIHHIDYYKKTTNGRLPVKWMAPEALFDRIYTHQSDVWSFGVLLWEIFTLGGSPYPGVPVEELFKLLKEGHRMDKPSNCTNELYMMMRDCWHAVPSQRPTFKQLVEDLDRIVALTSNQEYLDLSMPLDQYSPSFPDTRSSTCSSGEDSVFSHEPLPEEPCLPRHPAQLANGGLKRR
Quantity: IC50 (nM)

COc1cc(/C=C/C(=O)c2cccc(NC3=C(Cl)C(=O)c4ccccc4C3=O)c2)cc(OC)c1O ... 0.96
O=C(/C=C/c1ccc(O)cc1)c1cccc(NC2=C(Cl)C(=O)c3ccccc3C2=O)c1 ... 0.33
COc1ccc(/C=C/C(=O)c2ccc(NC3=C(Cl)C(=O)c4ccccc4C3=O)cc2)cc1OC ... 0.85
O=C(/C=C/c1ccc(O)cc1)c1ccc(NC2=C(Cl)C(=O)c3ccccc3C2=O)cc1 ... 3.13
COc1cccc(/C=C/C(=O)c2cccc(NC3=C(Cl)C(=O)c4ccccc4C3=O)c2)c1OC ... 0.91
COc1cc(/C=C/C(=O)c2ccc(NC3=C(Cl)C(=O)c4ccccc4C3=O)cc2)cc(OC)c1OC ... 1.69

(I) COc1ccc(/C=C/C(=O)c2cccc(NC3=C(Cl)C(=O)c4ccccc4C3=O)c2)c(OC)c1OC
(II) COc1ccc(/C=C/C(=O)c2ccc(NC3=C(Cl)C(=O)c4ccccc4C3=O)cc2)cc1O
Ask: Would you mind telling me which has the lower recorded IC50 between I and II ? Answer by stating the label of the chosen item.
Result: II

* * *

IC50 at 48 h values for the molecules below.
Experiment: Cytotoxicity assay
Type: cell-based
Conditions: human, MRC-5 normal embryonic lung cells
Report as a plain number; the unit nM is understood.

COc1cccc2c1C(=O)c1c(O)c3c(c(O)c1C2=O)C[C@@](O)(C(=O)CO)C[C@@H]3O[C@H]1C[C@H](N)[C@H](O)[C@H](C)O1 [doxorubicin, reference compound] ... 2790
COc1ccc(/C=C/C(=O)c2ccc(NC3=C(Cl)C(=O)c4ccccc4C3=O)cc2)cc1OC ... 2930
COc1cc(/C=C/C(=O)c2cccc(NC3=C(Cl)C(=O)c4ccccc4C3=O)c2)cc(OC)c1O ... 2900
COc1cccc(/C=C/C(=O)c2cccc(NC3=C(Cl)C(=O)c4ccccc4C3=O)c2)c1OC ... 4960
COc1ccc(/C=C/C(=O)c2ccc(NC3=C(Cl)C(=O)c4ccccc4C3=O)cc2)cc1O ... 14900

Ask: Give the value of IC50 at 48 h reported for the following: O=C(/C=C/c1ccc(O)cc1)c1cccc(NC2=C(Cl)C(=O)c3ccccc3C2=O)c1
Result: 11000

Ask: Give the value of IC50 at 48 h reported for the following: COc1ccc(/C=C/C(=O)c2cccc(NC3=C(Cl)C(=O)c4ccccc4C3=O)c2)c(OC)c1OC
Result: 2600

Ask: Give the value of IC50 at 48 h reported for the following: O=C(/C=C/c1ccc(O)cc1)c1ccc(NC2=C(Cl)C(=O)c3ccccc3C2=O)cc1
Result: 8310

Ask: Give the value of IC50 at 48 h reported for the following: COc1cc(/C=C/C(=O)c2cccc(NC3=C(Cl)C(=O)c4ccccc4C3=O)c2)cc(OC)c1OC
Result: 2520

Ask: Give the value of IC50 at 48 h reported for the following: COc1cccc(/C=C/C(=O)c2ccc(NC3=C(Cl)C(=O)c4ccccc4C3=O)cc2)c1
Result: 2690

Ask: Give the value of IC50 at 48 h reported for the following: COc1cc(/C=C/C(=O)c2ccc(NC3=C(Cl)C(=O)c4ccccc4C3=O)cc2)cc(OC)c1OC
Result: 2920
